Provenance of the data: ChEMBL document CHEMBL1153574

# key: entry, value: Activity
target: UniProt:P11387; experiment: Effect on human topoisomerase 1 expressed in Sf9 insect cells assessed as effective concentration required for 10% cleavage of plasmid DNA relative to topotecan

Some entries whose results are on file:
>>> datavalue("COc1cc2c(=O)n(CCn3ccnn3)c3c4cc5c(cc4ncc3c2cc1OC)OCO5")
"> 10"
>>> datavalue("CCN(CC)CCNCCn1c(=O)c2cc(OC)c(OC)cc2c2cnc3cc4c(cc3c21)OCO4")
5.2
>>> datavalue("COc1cc2c(=O)n(CCN(CCO)CCO)c3c4cc5c(cc4ncc3c2cc1OC)OCO5")
0.48
>>> datavalue("COc1cc2c(=O)n(CCNC(CO)CO)c3c4cc5c(cc4ncc3c2cc1OC)OCO5")
0.2
>>> datavalue("COc1cc2c(=O)n(CCNC3CC3)c3c4cc5c(cc4ncc3c2cc1OC)OCO5")
0.3
>>> datavalue("COc1cc2c(=O)n(CCN(C)CCO)c3c4cc5c(cc4ncc3c2cc1OC)OCO5")
0.04
>>> datavalue("CC[C@@]1(O)C(=O)OCc2c1cc1n(c2=O)Cc2cc3ccccc3nc2-1")
0.2
>>> datavalue("COc1cc2c(=O)n(CCOC(=O)CN(C)C)c3c4cc5c(cc4ncc3c2cc1OC)OCO5")
0.3

Ask: Fill in Activity for record COc1cc2c(=O)n(CCN(C)C)c3c4cc5c(cc4ncc3c2cc1OC)OCO5
Reply: 0.3

###

# key: entry, value: IC50
assay: Cytotoxicity against human CPT-K5 cells after 4 days by MTT assay; assay type: functional, cell-based; details: CPT-K5, 96 h
Kindly provide the numeric value in µM only, without the unit symbol.

>>> datavalue("COc1cc2c(=O)n(CCN(CCO)CCO)c3c4cc5c(cc4ncc3c2cc1OC)OCO5")
0.32

Ask: Fill in IC50 for record COc1cc2c(=O)n(CCN(C)CCO)c3c4cc5c(cc4ncc3c2cc1OC)OCO5
Reply: 0.58

Ask: Fill in IC50 for record COc1cc2c(=O)n(CCNCCN(C)C)c3c4cc5c(cc4ncc3c2cc1OC)OCO5
Reply: 2.6

Ask: Fill in IC50 for record COc1cc2c(=O)n(CCNC(CO)(CO)CO)c3c4cc5c(cc4ncc3c2cc1OC)OCO5
Reply: 7

Ask: Fill in IC50 for record COc1cc2c(=O)n(CCNC3CC3)c3c4cc5c(cc4ncc3c2cc1OC)OCO5
Reply: 0.3

Ask: Fill in IC50 for record COc1cc2c(=O)n(CCN(C)CCN(C)C)c3c4cc5c(cc4ncc3c2cc1OC)OCO5
Reply: 2.2

Ask: Fill in IC50 for record CCN(CC)CCNCCn1c(=O)c2cc(OC)c(OC)cc2c2cnc3cc4c(cc3c21)OCO4
Reply: 9

Ask: Fill in IC50 for record COc1cc2c(=O)n(CCOC(=O)CN(C)C)c3c4cc5c(cc4ncc3c2cc1OC)OCO5
Reply: 4.6

###

# key: entry, value: pIC50
test: Cytotoxicity against mouse P388/CPT45 cells after 4 days by MTT assay; type: functional, cell-based; settings: P388CPT45, 96 h
Bear in mind: pIC50 is minus log10 of a mol/L concentration; give just that figure.

Some entries whose results are on file:
>>> datavalue("COc1cc2c(=O)n(CCNC(CO)(CO)CO)c3c4cc5c(cc4ncc3c2cc1OC)OCO5")
5.46
>>> datavalue("COc1cc2c(=O)n(CCN(C)CCO)c3c4cc5c(cc4ncc3c2cc1OC)OCO5")
6.48
>>> datavalue("CCN(CC)CCNCCn1c(=O)c2cc(OC)c(OC)cc2c2cnc3cc4c(cc3c21)OCO4")
6.46
>>> datavalue("COc1cc2c(=O)n(CCN(CCO)CCO)c3c4cc5c(cc4ncc3c2cc1OC)OCO5")
6.60

Ask: Fill in pIC50 for record COc1cc2c(=O)n(CCO)c3c4cc5c(cc4ncc3c2cc1OC)OCO5
Reply: 6.05

Ask: Fill in pIC50 for record COc1cc2c(=O)n(CCNCCN(C)C)c3c4cc5c(cc4ncc3c2cc1OC)OCO5
Reply: 6.47

Ask: Fill in pIC50 for record COc1cc2c(=O)n(CCN(C)CCN(C)C)c3c4cc5c(cc4ncc3c2cc1OC)OCO5
Reply: 7.15

Ask: Fill in pIC50 for record COc1cc2c(=O)n(CCNC3CC3)c3c4cc5c(cc4ncc3c2cc1OC)OCO5
Reply: 6.96

Ask: Fill in pIC50 for record COc1cc2c(=O)n(CCOC(=O)CN(C)C)c3c4cc5c(cc4ncc3c2cc1OC)OCO5
Reply: 6.41

###

target: DNA topoisomerase 1 (Homo sapiens) (UniProt P11387); assay: Effect on human topoisomerase 1 expressed in Sf9 insect cells assessed as effective concentration required for 10% cleavage of plasmid DNA relative to topotecan
Sequence (P11387 whole entry): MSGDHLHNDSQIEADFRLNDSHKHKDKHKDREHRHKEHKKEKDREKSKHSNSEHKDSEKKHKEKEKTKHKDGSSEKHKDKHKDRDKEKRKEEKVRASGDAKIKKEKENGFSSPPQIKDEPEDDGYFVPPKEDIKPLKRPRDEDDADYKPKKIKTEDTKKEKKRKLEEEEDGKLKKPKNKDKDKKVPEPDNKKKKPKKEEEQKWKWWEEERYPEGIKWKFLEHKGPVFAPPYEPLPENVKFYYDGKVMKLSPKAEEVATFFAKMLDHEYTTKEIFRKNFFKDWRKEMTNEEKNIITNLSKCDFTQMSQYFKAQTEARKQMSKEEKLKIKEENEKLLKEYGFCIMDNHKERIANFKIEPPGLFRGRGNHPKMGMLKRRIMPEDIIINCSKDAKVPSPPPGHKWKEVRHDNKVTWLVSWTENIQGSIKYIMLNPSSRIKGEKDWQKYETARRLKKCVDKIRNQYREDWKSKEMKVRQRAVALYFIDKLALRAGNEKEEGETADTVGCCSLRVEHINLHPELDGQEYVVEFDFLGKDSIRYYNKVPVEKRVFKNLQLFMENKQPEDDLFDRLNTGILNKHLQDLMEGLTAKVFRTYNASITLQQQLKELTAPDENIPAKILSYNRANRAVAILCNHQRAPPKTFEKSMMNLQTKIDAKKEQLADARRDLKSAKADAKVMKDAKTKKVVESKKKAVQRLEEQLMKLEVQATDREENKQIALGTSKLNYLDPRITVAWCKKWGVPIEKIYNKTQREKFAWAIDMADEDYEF
Given measured Activity, output label 1 if it is greater than or equal to 2 and label 0 if not.

Ask: Confirm if Activity reported for the compound COc1cc2c(=O)n(CCNCCN(C)C)c3c4cc5c(cc4ncc3c2cc1OC)OCO5 is 2 or above.
Reply: label 1

Ask: Confirm if Activity reported for the compound COc1cc2c(=O)n(CCO)c3c4cc5c(cc4ncc3c2cc1OC)OCO5 is 2 or above.
Reply: label 1

Ask: Confirm if Activity reported for the compound COc1cc2c(=O)n(CCN(C)CCN(C)C)c3c4cc5c(cc4ncc3c2cc1OC)OCO5 is 2 or above.
Reply: label 0

Ask: Confirm if Activity reported for the compound COc1cc2c(=O)n(CCn3ccnc3)c3c4cc5c(cc4ncc3c2cc1OC)OCO5 is 2 or above.
Reply: label 1
